Assign pIC50 to each entry below.
# TARGET_DESC: Beta-lactamase TEM (Escherichia coli)
# Sequence (P62593 whole entry): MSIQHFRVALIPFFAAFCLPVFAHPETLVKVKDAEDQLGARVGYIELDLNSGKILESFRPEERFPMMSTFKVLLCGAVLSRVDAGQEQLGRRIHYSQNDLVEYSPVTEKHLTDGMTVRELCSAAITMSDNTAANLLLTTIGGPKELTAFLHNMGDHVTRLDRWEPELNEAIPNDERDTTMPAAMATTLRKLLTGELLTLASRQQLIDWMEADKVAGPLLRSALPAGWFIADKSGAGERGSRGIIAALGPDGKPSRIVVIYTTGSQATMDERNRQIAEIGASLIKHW
# ASSAY_SUMMARY: The concentration of compound to inhibit beta-lactamase was measured on Escherichia coli WC3310
# Format: functional
Bear in mind: pIC50 is minus log10 of a mol/L concentration; give just that figure.

Entry under test: "CC(=O)OCC1=C(C(=O)O)N2C(=O)C(=C(Cl)Cl)[C@H]2S(=O)(=O)C1" . Its pIC50 was 5.08

Note to self: pIC50 recorded for "CC(=O)OCC1=C(C(=O)[O-])N2C(=O)/C(=C/c3ccccn3)[C@H]2S(=O)(=O)C1.[Na+]" was 6.10

Notebook: "CC(=O)OCC1=C(C(=O)O)N2C(=O)/C(=C/C(=O)OC(C)(C)C)[C@H]2S(=O)(=O)C1" , pIC50 read as 8.30

* * *

# TARGET_DESC: Beta-lactamase (Enterobacter cloacae)
# Sequence (P05364 whole entry): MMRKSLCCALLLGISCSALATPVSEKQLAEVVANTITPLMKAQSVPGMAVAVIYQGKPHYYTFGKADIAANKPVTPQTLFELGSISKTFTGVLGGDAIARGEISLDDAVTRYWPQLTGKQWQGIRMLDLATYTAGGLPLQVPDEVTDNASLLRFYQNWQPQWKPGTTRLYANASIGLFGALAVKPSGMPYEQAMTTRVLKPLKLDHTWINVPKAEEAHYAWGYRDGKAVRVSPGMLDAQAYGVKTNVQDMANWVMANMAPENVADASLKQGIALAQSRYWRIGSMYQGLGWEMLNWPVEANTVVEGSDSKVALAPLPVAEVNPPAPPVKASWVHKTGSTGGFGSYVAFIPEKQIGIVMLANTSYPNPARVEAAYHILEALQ
# ASSAY_SUMMARY: The concentration of compound to inhibit Beta-lactamase was measured on Enterobacter cloacae P99
# Type: functional
Could you please report measured pIC50 for the items listed next?
pIC50 (log units): -log10 of the concentration in mol/L.

Hey, Beta-lactamase (Enterobacter cloacae) data for "CC(=O)OCC1=C(C(=O)[O-])N2C(=O)C(=C=CC(C)(C)C)[C@H]2S(=O)(=O)C1.[Na+]" : pIC50 came out at 6.89

Field pIC50 (system: Beta-lactamase (Enterobacter cloacae)) for entry "CC(=O)OCC1=C(C(=O)O)N2C(=O)/C(=C/C=O)[C@H]2SC1" = 5.09

* * *

# ASSAY_SUMMARY: The pseudo second order rate constant of inhibition (k3'') was measured by using Kitz and Wilson method
# Assay type: ADME
Provide the reported k3' of each item.

Short answer for "CC(=O)OCC1=C(C(=O)[O-])N2C(=O)/C(=C/c3ccccn3)[C@H]2S(=O)(=O)C1.[Na+]" : k3' was 5.3e+06 L (M min)-1

Reported k3' for O=C([O-])[C@H]1/C(=C/CO)O[C@@H]2CC(=O)N21.[Na+] [CLAVULANIC ACID (SODIUM)] was 799 L (M min)-1

k3' recorded for this molecule, "CC(=O)OCC1=C(C(=O)[O-])N2C(=O)C(=C=CC(C)(C)C)[C@H]2S(=O)(=O)C1.[Na+]" , is 1.7e+06 L (M min)-1

Lab book: k3' of C[C@]1(Cn2ccnn2)[C@H](C(=O)[O-])N2C(=O)C[C@H]2S1(=O)=O.[Na+] [TAZOBACTAM SODIUM] noted as 74000 L (M min)-1

* * *

Record form. Attribute: IC50. Fill in for each entry.
# TARGET_DESC: Beta-lactamase (Enterobacter cloacae)
# ASSAY_SUMMARY: The concentration of compound to inhibit Beta-lactamase was measured on Enterobacter cloacae SC 12368
# Format: functional

For this compound ( "CC(=O)OCC1=C(C(=O)O)N2C(=O)/C(=C/C(=O)OC(C)(C)C)[C@H]2SC1" ), measured IC50 is > 20 µM

Consider "CC(=O)OCC1=C(C(=O)O)N2C(=O)/C(=C/c3ccccn3)[C@H]2SC1" . Its measured IC50 is > 20 µM

# IC50 (compound: "CC(=O)OCC1=C(C(=O)[O-])N2C(=O)C(=C=CC(C)(C)C)[C@H]2S(=O)(=O)C1.[Na+]" ) is 0.26 µM

Please fill in: IC50 reported for "CC(=O)OCC1=C(C(=O)O)N2C(=O)/C(=C/c3ccccc3)[C@H]2SC1" = > 20 µM

IC50 in this record for "CC(=O)OCC1=C(C(=O)O)N2C(=O)C(=C(Br)Br)[C@H]2SC1" : > 20 µM

Reported IC50 of "CC(=O)OCC1=C(C(=O)O)N2C(=O)C(=C(Cl)Cl)[C@H]2SC1" : > 20 µM

Entry under test: "CC(=O)/C=C1/C(=O)N2C(C(=O)O)=C(COC(C)=O)CS[C@H]12" . Its IC50 was > 20 µM

"CC(=O)OCC1=C(C(=O)O)N2C(=O)/C(=C\Br)[C@H]2SC1" yielded IC50 of > 20 µM

Entry under test: "CC(=O)OCC1=C(C(=O)O)N2C(=O)/C(=C/C=O)[C@H]2SC1" . Its IC50 was 16.5 µM
